Biological target: Transforming acidic coiled-coil-containing protein 3 (Homo sapiens)
Assay: inhibition of ARNT PAS-B/TACC3 complex formation – biochemical, AlphaScreen, cherry-picked samples, confirmation (AID 651703);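 also: TACC3 partner is the GST-tagged E629A mutant dimer; hits lower the signal meaning they disrupt ARNT binding to TACC3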
Settings: AlphaScreen His-ARNT PAS-B / GST-TACC3 binding, luminescence
Measured Metric: AC50

Reference set, count: 2
O=C(COC(=O)c1cccs1)Nc1nnc(-c2ccccc2)o1 = 14.1 µM
COc1cccc(/C=N/NC(=O)CNC(=O)c2ccncc2)c1O = 64.8 µM

Would you be so kind as to report AC50 for each listed record?
1. C=C1c2cccc(O)c2C(=O)C2C(=O)[C@]3(O)C(=O)C(C(N)=O)C(=O)[C@@H](N(C)C)[C@@H]3[C@@H](O)[C@H]12 (stereo not given in full)
2. CO[C@@H]1CN(C)C(=O)c2ccc(NC(=O)c3ccccn3)cc2OC[C@@H](C)N(Cc2ccccn2)C[C@H]1C
3. COCc1ccc(O)c2ncccc12
4. Cc1cccc(NC(=O)CSc2ccc(-c3ccccn3)nn2)c1C
5. O=C(CSc1ccc(-c2ccccn2)nn1)c1ccccc1
6. COc1ccc(NC(=O)CSc2n[nH]c(-c3ccccn3)n2)cc1

Resp:
["21.2 µM", "7.1 µM", "2.22 µM", "2.86 µM", "3.36 µM", "0.963 µM"]

Would you be so kind as to report AC50 for each listed record?
1. O=C(O)c1cn[nH]c1-n1cnnn1
2. C[C@@H](C(=O)Nc1nc(-c2ccccn2)cs1)N1C(=O)C2CCCCC2C1=O (stereo not given in full)

Resp:
["40.6 µM", "4.28 µM"]

----------
Molecular target: Transforming acidic coiled-coil-containing protein 3 (Homo sapiens) (UniProt Q9Y6A5)
Assay: inhibition of ARNT PAS-B/TACC3 complex formation – biochemical, AlphaScreen, cherry-picked samples, confirmation (AID 651703);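 also: TACC3 partner is the GST-tagged E629A mutant dimer; hits lower the signal meaning they disrupt ARNT binding to TACC3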
Conditions: AlphaScreen His-ARNT PAS-B / GST-TACC3 binding, luminescence
Field: AC50. Provide a value for each of the compounds that follow.

Reference set, count: 3
COc1cc(CNCc2ccccn2)ccc1OCc1c(Cl)cccc1Cl = 43.4 µM
O=C(NC[C@H]1[C@@H](c2ccccc2)[C@@H](CO)N1Cc1ccccn1)C1CCC1 = 51.5 µM
O=C(COc1ccccc1F)Nc1nc(-c2ccccn2)cs1 = 8.38 µM

Would you be so kind as to report AC50 for each listed record?
1. Cn1c(CNc2ccccc2O)nc2ccccc21
2. O=[N+]([O-])c1cccc(/C=N/Nc2nc(NCc3ccccc3)nc(N3CCOCC3)n2)c1O
3. CC(C)C1Cc2c(sc3ncnc(NN)c23)CO1 (stereo unspecified)

Resp:
1: 21.8 µM; 2: 2.29 µM; 3: 7.67 µM

----------
Biological target: Transforming acidic coiled-coil-containing protein 3 (Homo sapiens)
Test: inhibition of ARNT PAS-B/TACC3 complex formation – biochemical, AlphaScreen, cherry-picked samples, confirmation (AID 651703);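 also: TACC3 partner is the GST-tagged E629A mutant dimer; hits lower the signal meaning they disrupt ARNT binding to TACC3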
Conditions: AlphaScreen His-ARNT PAS-B / GST-TACC3 binding, luminescence
Field: AC50. Provide a value for each of the compounds that follow.

Reference set, count: 6
COc1ccc(-c2nc(C#N)c(N3CCCCC3)o2)cc1 = 32.2 µM
O=S(=O)(N[C@@H]1CCCN(Cc2ccc(OCCO)cc2)C1)c1cccc2cccnc12 = 16.2 µM
O=C(CSc1cccc2cccnc12)Nc1ccc(S(=O)(=O)N2CCOCC2)cc1 = 10.9 µM
OCC1CCN(c2nc(-c3ccccn3)nnc2-c2ccccc2)CC1 = 1.03 µM
c1ccc(-c2nc3cc4ccccc4cc3[nH]2)nc1 = 32.7 µM
CCOc1cccc(/C=N/NC(=O)c2cccnc2)c1O = 21.6 µM

Would you be so kind as to report AC50 for each listed record?
1. O=C(CSc1ccc2nnc(-c3ccccn3)n2n1)Nc1nccs1
2. Cc1cc(=O)n2c3c(c4c(cc13)c(CN(C)C)cc(=O)n4C)OC2
3. CCCC(=O)NC(c1ccccc1)c1ccc2cccnc2c1O (centres undefined)
4. C[C@@H]1CN([C@H](C)CO)C(=O)c2cc(NC(=O)Nc3ccc(C(F)(F)F)cc3)ccc2O[C@@H](C)CCCCO[C@@H]1CN(C)Cc1ccc2c(c1)OCO2
5. N#CC1=C(N)Oc2c(ccc3cccnc23)C1c1cccnc1 (centres undefined)
6. CC(C)C(=O)NC(c1ccco1)c1ccc2cccnc2c1O (centres undefined)
7. O=S(=O)(N[C@@H]1CC[C@H](CCn2cc(-c3ccccn3)nn2)O[C@@H]1CO)c1cccc(Cl)c1
8. O=C(CSc1ccc2nnc(-c3ccccn3)n2n1)Nc1ccccc1C(F)(F)F

Resp:
1. 11.2 µM
2. 17.7 µM
3. 4.6 µM
4. 38.1 µM
5. 7.36 µM
6. 0.957 µM
7. 16.7 µM
8. 50.7 µM

Would you be so kind as to report AC50 for each listed record?
1. O=C(CN1CC(=O)Oc2ccccc21)NCc1ccco1
2. Cc1ccc(CNc2nc(-c3ccccn3)nnc2-c2ccccc2)cc1
3. COc1cc(/C=N/NC(=O)c2cncc(Br)c2)cc([N+](=O)[O-])c1O
4. O=C(NCCCn1ccnc1)C(=O)NCC(c1ccco1)N1CCN(c2ccccc2)CC1 (centres undefined)
5. O=C(COC(=O)c1cccc(O)c1)Nc1nnc(-c2ccccc2)o1
6. Oc1ccc(CN2CCN(Cc3ccccc3)CC2)c2cccnc12
7. COc1cc(OC)c2c(-c3ccccc3)cc(=O)oc2c1C(CCN1CCCCC1)c1ccc(N(C)C)cc1 (centres undefined)
8. CCOc1ncccc1C(=O)OCC(=O)Nc1nnc(-c2ccccc2)o1

Resp:
1: 2.05 µM; 2: 0.736 µM; 3: 42 µM; 4: 6.85 µM; 5: 16 µM; 6: 2.41 µM; 7: 7.83 µM; 8: 21.6 µM
